assayNotes: endothelial E-selectin expression blockers – imaging, HUVEC, immunofluorescence, MLSMR starter and 10KST1 sets, primary screen (AID 487);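 also: signal is fraction of cell area covered by stained E-selectin grains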
conditionDetails: HUVEC TNFalpha-induced E-selectin immunofluorescence imaging, at 2 µM; hits give high values
quantityName: inhibition (%)

In [3]: df
Out[3]:
                                    molecule  valueunit  number
 0  CCOC(=O)C1CN(S(=O)(=O)c2ccc(C)cc2)CCN1S(=O)(=O)c1ccc(C)cc1 (stereo not given)          %    -114
 1       Oc1cc(NCc2cccnc2)ccc1-c1nc2ccccc2o1          %   -28.5
 2  CCOc1ccccc1N(C(=O)Cn1nnnc1-c1ccc(C)o1)C(CC)C(=O)NC(C)(C)C (stereo not given)          %   -61.8
 3  CC1(C)CC(=O)C=C(Nc2ccc(OCC(F)(F)C(F)F)cc2)C1          %     -43
 4       Cc1ccc(Nc2nc(N)nc(CN3CCCCCC3)n2)cc1          %    69.8
 5  COC(=O)c1cccc(NC(=O)Cc2coc3cc(OC)ccc23)c1          %   -64.1
 6  Cc1cc(N2CCC3(CC2)OCCO3)n2nc(C)c(-c3ccc(Cl)cc3)c2n1          %   -11.4
 7          CC(C)Cn1c(-c2ccc(F)cc2)n[nH]c1=S          %   -69.3
 8  CC1CN(C(=O)c2scc3c2OCCO3)CC(C)O1 (stereo not given)          %    11.5
 9  CC1CCC(NC(=O)Cn2ncc3ccccc32)CC1 (stereo not given)          %   -59.2
10  CCn1cc(C2Nc3ccccc3C(=O)N2O)c(C)n1 (stereo not given)          %   -66.4
11  COc1ccc(N2CCN(CCCNC(=O)C3CCCN(S(=O)(=O)c4cnc[nH]4)C3)CC2)cc1 (stereo not given)          %   -87.7
12            CCN1CCN(S(=O)(=O)Cc2ccccc2)CC1          %   -78.4
13  CCOC(=O)N1CCN(c2c(NCC3CCN(Cc4cccc(C)c4)CC3)c(=O)c2=O)CC1          %   -67.1
14  C/C=C/Cn1c(SCCCc2ccccc2)nc2c1c(=O)[nH]c(=O)n2C          %   -13.9
15  CCCCn1c(SCC(=O)N2CC(=O)Nc3ccccc32)nnc1-c1ccoc1C          %    -146
16  CCOC(=O)C1=C(C)OC(N)=C(C#N)C1c1ccoc1 (stereo not given)          %    24.7
17     O=C(Cn1c(-c2cncs2)nc2ccccc21)NC1CCCC1          %    -9.6
18  O=C(CCn1c(=O)oc2ccccc21)N1CCN(c2ccccc2Cl)CC1          %    26.9
19   COc1cc(CN2CCN(C(=O)CC(C)C)CC2)cc(OC)c1O          %   -52.5
20  CC(Oc1ccccc1)C(=O)NC1CC(C)(C)NC(C)(C)C1 (stereo not given)          %    13.8
21  CC1CCCc2sc3nc(NCc4ccco4)n4ncnc4c3c21 (stereo not given)          %     5.2
22                 COCCOC(=O)/C=C1/NC(=O)CS1          %    45.1
23  O=C(Nc1ccc(Cc2ccc(NC(=O)N3CCOCC3)cc2)cc1)N1CCOCC1          %    30.5
24              CCCCOc1ccc(-c2ncc(Cl)cn2)cc1          %     -10
25           CCc1c(C)n([O-])c2c([n+]1=O)CCC2          %     3.1
26   COc1ccc(CCNC(=O)c2cc3sc(Cl)cc3n2C)cc1OC          %     2.3
27  COCCNC(=O)C(c1ccc(C)o1)N(Cc1ccc(F)cc1)C(=O)Cn1nnc2ccccc21 (stereo not given)          %    12.3
28  COc1ccc(CN(CC(=O)NCC2CCCO2)C(=O)CNS(=O)(=O)c2ccc(C)cc2)cc1 (stereo not given)          %   -52.4
29                CCOC(=O)c1cnc(SCC)[nH]c1=O          %   -34.3
30  O=C(Cn1nc(Cc2ccncc2)c2ccccc2c1=O)N1CCN(C(=O)c2ccco2)CC1          %   -15.2
31      Cc1cccc(-n2ncc3c(N(CCO)CCO)ncnc32)c1          %   -35.6
32     COc1cc(OC)nc(NC(=O)CSc2nc3ccccc3o2)n1          %   -18.2
33      Clc1cccc(-c2nnc3sc(-c4ccccc4)nn23)c1          %   -30.8
34  CCOCCCNC(=O)C1CCN(S(=O)(=O)c2c(C)noc2/C=C\c2ccc(OC)cc2)CC1          %    -122
35             COc1cccc(-c2nnc(NC(C)=O)o2)c1          %   -24.3
36       COCCn1c(COc2ccc(Cl)cc2)nnc1SCC(N)=O          %   -31.9
37  CCOc1cc(NC(=O)c2ccco2)c(OCC)cc1NC(=O)CCc1ccc(OC)cc1          %    23.6
38  CCOC(=O)c1c(NC(=O)Cn2c(=O)oc3ccccc32)oc(C)c1C(C)=O          %     1.9
39  CCN(CC)S(=O)(=O)c1ccc(F)c(C(=O)NCCC(C)C)c1          %   -22.3
40  O=C(C1CCCCC1)N1CCC(c2nc3c(nnn3Cc3c(F)cccc3Cl)c(=O)[nH]2)CC1          %    -110
41            Cn1c(=O)c2c(nc3sccn32)n(C)c1=O          %    29.8
42      C=CCNC(=O)CN(c1cccc(Br)c1)S(C)(=O)=O          %    21.4
43  CS(=O)(=O)N1CCCC(C(=O)NCCCN2CCC(Cc3ccccc3)CC2)C1 (stereo not given)          %    -139
44  Oc1ccc(N2CCN(C(c3ccncc3)c3nnnn3C3CCCC3)CC2)cc1 (stereo not given)          %   -67.5

All figures here come from PubChem BioAssay.
